# target entity: G protein-coupled receptor 119 (GPR-119) (Mesocricetus auratus, UniProt A0A1U8CD06)
# Construct: hamster-derived β-cells containing G protein-coupled receptor 119 (GPR-119), HIT-T15 cells; host or cells: HIT-T15 (hamster pancreatic β-cells)
# Sequence (A0A1U8CD06 1-334): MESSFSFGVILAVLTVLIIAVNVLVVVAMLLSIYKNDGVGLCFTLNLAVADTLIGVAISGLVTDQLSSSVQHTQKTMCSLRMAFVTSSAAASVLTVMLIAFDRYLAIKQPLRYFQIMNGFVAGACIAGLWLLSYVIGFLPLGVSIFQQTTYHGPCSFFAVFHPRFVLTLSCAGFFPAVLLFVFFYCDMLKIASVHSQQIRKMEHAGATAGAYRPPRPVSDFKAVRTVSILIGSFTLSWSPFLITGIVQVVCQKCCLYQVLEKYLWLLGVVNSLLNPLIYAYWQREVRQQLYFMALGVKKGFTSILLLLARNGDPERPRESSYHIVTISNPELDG
# run description: cAMP activity in HIT-T15 cells (cAMP dynamic kit, FRET)
# Type: cell-based, hamster
# test parameters: 1 hour at 37° C., six concentrations 0.0032 to 10 μM, read-out: EC50
property measured: EC50 (nM)
I only need the number, in nM, no unit after it.

Example cases with answers are listed next.
| compound | display unit | EC50 |
| --- | --- | --- |
| CCc1cnc(N2CCC(COc3ccc(C4=CCC(C(=O)N(CCO)CCO)CC4)cc3F)CC2)nc1 (centres unmarked) | nM | 28 |
| CCCNC(=O)N1CCN(C(=O)C2CC=C(c3ccc(OCC4CCN(c5ncc(CC)cn5)CC4)cc3)CC2)CC1 (centres unmarked) | nM | 37 |
| CC(C)c1noc(N2CCC(COc3ccc(C4=CCC(C(=O)N5CCC(=NO)CC5)CC4)cc3F)CC2)n1 (centres unmarked) | nM | 15 |

Quick one: EC50 for CC(C)c1noc(N2CCC(COc3ccc(C4=CCC(C(=O)N5CCC(CCO)CC5)CC4)cn3)CC2)n1 (centres unmarked) ?
53

Quick one: EC50 of CCc1cnc(N2CCC(COc3ccc(C4=CCC(C(=O)N5CCC5)CC4)cc3F)CC2)nc1 (centres unmarked) ?
19

Tell me the measured EC50 of CCc1cnc(N2CCC(COc3ccc(C4=CCC(C(=O)N5CC(F)(F)C(F)(F)C5)CC4)cc3F)CC2)nc1 (centres unmarked) , please.
12

# query: EC50 of entry CCc1cnc(N2CCC(COc3ccc(C4=CCC(C(=O)N5CCSCC5)CC4)cc3C#N)CC2)nc1 (centres unmarked)
68

What EC50 value was documented for this compound, CCc1cnc(N2CCC(COc3ccc(C4=CCC(C(=O)N5CCCC5)CC4)cc3F)CC2)nc1 (single isomer, unassigned; (-)) [Example 429] ?
21

----------
# target entity: G protein-coupled receptor 119 (GPR-119) (Mesocricetus auratus, UniProt A0A1U8CD06)
# Construct: hamster-derived β-cells containing G protein-coupled receptor 119 (GPR-119), HIT-T15 cells; host or cells: HIT-T15 (hamster pancreatic β-cells)
# run description: cAMP activity in HIT-T15 cells (cAMP dynamic kit, FRET)
# Assay type: cell-based, hamster
# test parameters: 1 hour at 37° C., six concentrations 0.0032 to 10 μM, read-out: EC50
property measured: pEC50
Expect pEC50 as a plain number equal to -log10 of the molar concentration.

# example entries with known answers
| compound | target entity | pEC50 |
| --- | --- | --- |
| CC(C)(C)OC(=O)N1CCC(COc2ccc(C3=CCC(C(=O)N4CCC(CO)CC4)CC3)nc2)CC1 (stereo not drawn) | G protein-coupled receptor 119 (GPR-119) (Mesocricetus auratus, UniProt A0A1U8CD06) | 7.28 |
| CCc1cnc(N2CCC(COc3ccc(C4=CCC(C(=O)N(CCO)CCO)CC4)c(F)c3)CC2)nc1 (stereo not drawn) | G protein-coupled receptor 119 (GPR-119) (Mesocricetus auratus, UniProt A0A1U8CD06) | 7.57 |
| CCc1cnc(N2CCC(COc3ccc(C4=CCC(C(=O)N(C)CCCO)CC4)cc3F)CC2)nc1 (stereo not drawn) | G protein-coupled receptor 119 (GPR-119) (Mesocricetus auratus, UniProt A0A1U8CD06) | 7.98 |
| CCc1cnc(N2CCC(COc3ccc(C4=CCC(C(=O)N5CCC(CO)CC5)CC4)cn3)CC2)nc1 (stereo not drawn) | G protein-coupled receptor 119 (GPR-119) (Mesocricetus auratus, UniProt A0A1U8CD06) | 7.66 |

Look up pEC50 for this compound: CCc1cnc(N2CCC(COc3ccc(C4=CCC(C(=O)N(C)CCO)CC4)cc3F)CC2)nc1 (stereo not drawn)
7.85

Return reported pEC50; argument: CC(C)c1noc(N2CCC(COc3ccc(C4=CCC(C(=O)N5CCOCC5)CC4)cn3)CC2)n1 (stereo not drawn)
7.30
